- assayed-system: T1, recombinant human CD40 (R&D systems, Cat. No.: P25942) (human, UniProt P25942 21-193)
- T1 construct: also called rCD40; human recombinant CD40
- T1 sequence (P25942 21-193 limits assumed, one chain of several): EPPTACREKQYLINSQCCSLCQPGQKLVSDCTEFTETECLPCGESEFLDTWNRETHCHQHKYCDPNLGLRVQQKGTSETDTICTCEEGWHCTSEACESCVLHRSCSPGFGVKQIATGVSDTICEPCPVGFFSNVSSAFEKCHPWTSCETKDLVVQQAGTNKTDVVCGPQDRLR
- method-notes: ELISA, coated rCD40 1.0 µg/mL, CHO culture supernatant
measurement-name: binding result

| binder | val |
| --- | --- |
| humanized 5C2 antibody VH1VL1 (a combination of heavy chain VH1 and light chain VL1) (antibody, human IgG2, V domains shown, Tested as CHO culture supernatant) VH: QVQLVQSGAEVKKPGASVKVSCKASGYGFTNYLIEWVRQAPGQGLEWIGVINPGYGGVNYNEKFKGRATLTADKSISTAYMELSRLRSDDTAVYFCARGGSGFAFWGQGTLVTVSS VL: DIQMTQSPSSLSASVGDRVTITCRASQDISNHLNWYQQKPGKAVKLLISSTSRLHSGVPSRFSGSGSGTDYTLTISSLQPEDFATYFCQQGNTLPWTFGQGTKVEIK | binds |
| humanized 5C2 antibody VH1VL2 (a combination of heavy chain VH1 and light chain VL2) (antibody, human IgG2, V domains shown, Tested as CHO culture supernatant) VH: QVQLVQSGAEVKKPGASVKVSCKASGYGFTNYLIEWVRQAPGQGLEWIGVINPGYGGVNYNEKFKGRATLTADKSISTAYMELSRLRSDDTAVYFCARGGSGFAFWGQGTLVTVSS VL: EIVMTQSPATLSVSPGERATLSCRASQDISNHLNWYQQKPGQAVRLLISSTSRLHSGIPARFSGSGSGTEYTLTISSLQSEDFAVYFCQQGNTLPWTFGQGTKVEIK | binds |
| humanized 5C2 antibody VH3VL2 (a combination of heavy chain VH3 and light chain VL2) (antibody, human IgG2, V domains shown, Tested as CHO culture supernatant) VH: QVQLVQSGAEVKKPGSSVKVSCKASGYGFTNYLIEWVRQAPGQGLEWIGVINPGYGGVNYNEKFKGRATLTADKSTSTAYMELSSLRSEDTAVYFCARGGSGFAFWGQGTLVTVSS VL: EIVMTQSPATLSVSPGERATLSCRASQDISNHLNWYQQKPGQAVRLLISSTSRLHSGIPARFSGSGSGTEYTLTISSLQSEDFAVYFCQQGNTLPWTFGQGTKVEIK | binds |

From: patent US20230192875A1
